Below, each entry is listed with its recorded protein stability index.
ASSAY COMMENT: protein stability index of a GFP-peptide fusion (yeast GPS) (PSI 1-4); higher = more stable; sorted into four equal gates, so the index is relative within each strain
TEST CONTEXT: doa10∆
Give the figure only, with no unit attached.

GTQQSNMYTSTQKTELE [SIR4] ... 2.96
DSTAVALEEGLNEEAVI [YJL039C/NUP192] ... 3.08
KVQDAIEEEIFDDSSRI [LIN1] ... 3.07
FGNTSTSSAPAQNQGMF [YGL172W/NUP49] ... 3.3
SKYCEKSLPLLITVMEK [YCS4] ... 1.76

# input Given DLKPANIMVTIDGCVKI [SSN3] , state its recorded protein stability index.
# output 2.58

# input Same lookup for FLSLLNLATKGMVKLNE [REC8] , please.
# output 2.77

# input Also QIDHFKSMLSKPETLSI [SWI3] ?
# output 2.61

# input Now consider IEHPMTSAIEVLVGSCA [RPN1] and answer again.
# output 1.94

# input Proceed to QYSTRHDAPRGLFPFES [SWI3]
# output 3.14

# input Query HKLRESLPLIVFLRNRL [RPS4A] next
# output 1.85

# input How about WYLILSIISSKTSCVVE [RGR1] ?
# output 1.46

# input Param item: TMQPPYIQERLKSLNDI [MED11]
# output 2.89

# input Also VSLVAEATSNTNSEDKL [MED4] , if possible.
# output 2.84

# input Another sequence to check: NHFIFNVESAGAMTPEE [RPC40]
# output 2.01

# input Try this sequence next: ESDETTTDNNNSGNSNS [RPT1]
# output 3.12
